target: F508del-CFTR (Homo sapiens (Human), UniProt P13569, DEL508-508)
Sequence (P13569 other isoform, or with tags, fused parts or gaps del F508-F508): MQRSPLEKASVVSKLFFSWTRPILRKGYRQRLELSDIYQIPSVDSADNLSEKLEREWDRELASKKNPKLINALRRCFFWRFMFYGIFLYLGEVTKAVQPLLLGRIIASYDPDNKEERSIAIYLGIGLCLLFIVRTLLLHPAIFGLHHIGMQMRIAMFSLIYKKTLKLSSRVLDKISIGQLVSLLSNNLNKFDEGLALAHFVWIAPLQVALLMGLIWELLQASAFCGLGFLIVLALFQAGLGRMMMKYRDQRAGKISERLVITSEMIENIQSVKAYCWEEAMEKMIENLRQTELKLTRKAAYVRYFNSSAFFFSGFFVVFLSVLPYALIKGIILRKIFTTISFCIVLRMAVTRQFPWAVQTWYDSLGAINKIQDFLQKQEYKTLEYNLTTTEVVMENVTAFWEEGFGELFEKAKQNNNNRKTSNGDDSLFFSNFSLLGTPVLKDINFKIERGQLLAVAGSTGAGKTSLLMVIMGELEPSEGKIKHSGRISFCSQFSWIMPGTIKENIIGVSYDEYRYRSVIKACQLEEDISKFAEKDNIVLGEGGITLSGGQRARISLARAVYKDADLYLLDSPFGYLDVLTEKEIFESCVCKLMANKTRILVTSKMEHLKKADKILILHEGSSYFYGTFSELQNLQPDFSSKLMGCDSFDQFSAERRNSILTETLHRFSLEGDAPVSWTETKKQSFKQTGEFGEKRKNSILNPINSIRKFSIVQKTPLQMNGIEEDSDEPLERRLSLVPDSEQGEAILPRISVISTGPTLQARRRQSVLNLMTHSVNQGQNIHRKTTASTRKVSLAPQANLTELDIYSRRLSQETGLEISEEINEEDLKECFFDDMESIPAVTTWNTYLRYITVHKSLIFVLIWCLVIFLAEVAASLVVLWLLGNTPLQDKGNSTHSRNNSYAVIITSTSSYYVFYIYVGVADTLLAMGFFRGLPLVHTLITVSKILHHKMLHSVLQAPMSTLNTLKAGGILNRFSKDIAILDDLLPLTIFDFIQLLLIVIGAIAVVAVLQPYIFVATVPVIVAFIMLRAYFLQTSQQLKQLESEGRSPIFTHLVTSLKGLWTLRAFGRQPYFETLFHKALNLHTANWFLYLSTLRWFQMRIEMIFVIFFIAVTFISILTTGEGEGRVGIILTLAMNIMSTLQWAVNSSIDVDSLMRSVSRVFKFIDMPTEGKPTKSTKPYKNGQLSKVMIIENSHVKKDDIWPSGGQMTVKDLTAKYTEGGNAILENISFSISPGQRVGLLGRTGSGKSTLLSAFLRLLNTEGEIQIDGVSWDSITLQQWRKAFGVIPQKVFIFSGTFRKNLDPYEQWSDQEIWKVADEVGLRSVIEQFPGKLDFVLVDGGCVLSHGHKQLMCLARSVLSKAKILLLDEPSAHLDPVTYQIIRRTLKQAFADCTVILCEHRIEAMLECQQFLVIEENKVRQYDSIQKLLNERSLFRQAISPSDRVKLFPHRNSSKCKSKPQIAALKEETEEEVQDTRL
testSummary: Membrane potential optical (fluorescent voltage sensing dye, FLIPR III) HTS assay for F508del-CFTR modulators
Format: cell-based
measurementSetup: Table 9; read-out: CFTR dF508 EC50
Text: Membrane Potential Optical Methods for Assaying Properties of F508del-CFTR Modulators The assay utilizes fluorescent voltage sensing dyes to measure changes in membrane potential using a fluorescent plate reader (e.g., FLIPR III, Molecular Devices, Inc.) as a readout for increase in functional F508del in NIH 3T3 cells. 5A-A1. Identification of F508Del-CFTR Modulators To identify modulators of F508del, a fluorescence based HTS assay format was developed. […]
pEC50: −log10 of the molar value.
Assign satisfied to entries whose pEC50 meets or exceeds 7; assign not satisfied to the rest.

compound="COc1ccccc1S(=O)(=O)NC(=O)c1ccc(-n2ccc(OCC3(C(F)(F)F)CC3)n2)nc1N1C[C@@H](C)CC1(C)C [Comp. 53]" labelclass=satisfied
compound="C[C@@H]1CN(c2nc(-n3ccc(OCCC(C4CC4)C4CC4)n3)ccc2C(=O)NS(=O)(=O)c2ccccc2)C(C)(C)C1 [Comp. 42]" labelclass=satisfied
compound="C[C@@H]1CN(c2nc(-n3ccc(OCC4(C(F)(F)F)CC4)n3)ccc2C(=O)NS(=O)(=O)c2ccccc2)C(C)(C)C1 [Compound 14]" labelclass=satisfied
compound="Cc1ccccc1S(=O)(=O)NC(=O)c1ccc(-n2ccc(OCC3(C(F)(F)F)CC3)n2)nc1N1C[C@@H](C)CC1(C)C [Compound 23]" labelclass=satisfied
compound="C[C@@H]1CN(c2nc(-n3ccc(OCCC4(C(F)(F)F)CC4)n3)ccc2C(=O)NS(=O)(=O)c2ccccc2)C(C)(C)C1 [Compound 1]" labelclass=satisfied
compound="C[C@@H]1CN(c2nc(-n3ccc(OCC4(C(F)(F)F)CC4)n3)ccc2C(=O)NS(=O)(=O)c2ccc(C#N)cc2)C(C)(C)C1 [Comp. 27]" labelclass="not satisfied"
compound="C[C@@H]1CN(c2nc(-n3ccc(OCC4C(C)(C)C4(C)C)n3)ccc2C(=O)NS(=O)(=O)c2cccc(F)c2)C(C)(C)C1 [Compound 16]" labelclass=satisfied
compound="C[C@@H]1CN(c2nc(-n3ccc(OCC4CC4)n3)ccc2C(=O)NS(=O)(=O)c2cccnc2N)C(C)(C)C1 [Comp. D, reference compound]" labelclass="not satisfied"
compound="C[C@@H]1CN(c2cc(-n3ccc(OCCC4(C(F)(F)F)CC4)n3)ncc2C(=O)NS(=O)(=O)c2ccccc2)C(C)(C)C1 [Comp. 44]" labelclass="not satisfied"
